Tested on: glioma cell line SH-SY5Y
Experiment: CCK-8 cell proliferation inhibition test, SH-SY5Y
Assay type: cell-based
Conditions: Homo sapiens, 100 μM, 48 h, read-out: IC % for 100 μM
The molecules listed here are annotated with their inhibition at 100 µM.
Give a bare numeral; the unit % is implied.

Observe how each entry below is paired with its result.
| Molecule | inhibition at 100 µM [%] |
| --- | --- |
| COc1ccc(Cc2nc(C(C)(C)C)n(C3CCN(C)CC3)n2)cc1 | 44.8 |
| Cc1ccc(-c2nc(C3CNCCO3)n(C3CCN(C)CC3)n2)cc1 (centres unmarked) | 52.8 |
| CN1CCC(n2nc(Cc3ccccc3)nc2C2CNCCO2)CC1 (centres unmarked) | 53.2 |

Request: inhibition at 100 µM lookup needed for COc1ccc(Cc2nc(C3CNCCO3)n(-c3cnccn3)n2)cc1 (centres unmarked) , thanks.
Response: 57.9

Request: Next entry: COc1ccc(Cc2nc(C3CCCCC3)n(Cc3ccc(OC)cc3)n2)cc1
Response: 46.2

---

Biological target: lysine methyltransferase SET8 (Homo sapiens, UniProt Q9NQR1)
Construct: purchased Cayman Company
Sequence (Q9NQR1 whole entry): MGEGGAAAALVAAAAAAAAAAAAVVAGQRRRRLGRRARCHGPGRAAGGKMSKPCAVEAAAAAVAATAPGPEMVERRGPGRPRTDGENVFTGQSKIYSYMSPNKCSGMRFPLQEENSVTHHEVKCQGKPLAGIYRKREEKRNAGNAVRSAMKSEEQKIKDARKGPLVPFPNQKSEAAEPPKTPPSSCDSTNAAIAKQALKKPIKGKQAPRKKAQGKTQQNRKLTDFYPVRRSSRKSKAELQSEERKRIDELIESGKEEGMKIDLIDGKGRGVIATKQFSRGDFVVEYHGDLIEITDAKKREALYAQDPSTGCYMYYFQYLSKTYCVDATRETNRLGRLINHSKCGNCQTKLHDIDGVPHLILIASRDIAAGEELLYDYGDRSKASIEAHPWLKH
Assay: SET8 methyltransferase inhibitor screening assay kit (Cayman), fluorescence
Assay type: biochemical
Conditions: incubation at 37° C. for 10 min; inhibitor concentration not given
Readout name: Inhibition Rate (%)
Give just the number in %; leave the unit off.

Request: // Inhibition Rate (%) lookup, key: COc1ccc(Cc2nc(C3CNCCO3)n(C3CCCCC3)n2)cc1 (stereo not shown) [Compound 3]
Response: 70.0

Request: Also, COc1ccc(Cc2nc(C3CNCCO3)n(-c3ccccn3)n2)cc1 (stereo not shown) [Compound 6] please.
Response: 70.3

Request: Try this molecule next: COc1ccc(Cc2nc(CN)n(C3CCN(C)CC3)n2)cc1 [Compound 11]
Response: 36.8

Request: Try COc1ccc(Cc2nc(C3CCCCO3)n(C3CCN(C)CC3)n2)cc1 (stereo not shown) [Compound 10] next.
Response: 43.6

Request: Try CN1CCC(n2nc(Cc3ccccc3)nc2C2CNCCO2)CC1 (stereo not shown) [Compound 14] next.
Response: 59.2

Request: Again, but for COc1ccc(Cc2nc(C3CN(Cc4ccccc4)CCO3)n(C3CCN(C)CC3)n2)cc1 (stereo not shown) [Compound 9]
Response: 72.3

---

Molecular target: lysine methyltransferase SET8 (Homo sapiens)
Construct: purchased Cayman Company
Experiment: SET8 methyltransferase inhibitor screening assay kit (Cayman), fluorescence
Assay type: biochemical
Conditions: incubation at 37° C. for 10 min; inhibitor concentration not given
Inhibition Rate (%) values by entry
Answer in %, number only, no unit symbol.

| Molecule | Experimental system | Inhibition Rate (%) |
| --- | --- | --- |
| COc1ccc(Cc2nc(C3CCCCC3)n(C3CCN(C)CC3)n2)cc1 | lysine methyltransferase SET8 (Homo sapiens) | 43.8 |
| Cc1cccc(-c2nc(C3CNCCO3)n(C3CCN(C)CC3)n2)c1 (stereo not shown) | lysine methyltransferase SET8 (Homo sapiens) | 58.3 |
| COc1ccc(Cc2nc(C3CNCCO3)n(-c3cnccn3)n2)cc1 (stereo not shown) | lysine methyltransferase SET8 (Homo sapiens) | 70.8 |
| COc1ccc(Cc2nc(C3CCCCO3)n(Cc3ccc(OC)cc3)n2)cc1 (stereo not shown) | lysine methyltransferase SET8 (Homo sapiens) | 67.8 |

Next molecule, please.
Request: Given COc1ccc(Cn2nc(-c3ccccc3)nc2C2CNCCO2)cc1 (stereo not shown) , state its recorded Inhibition Rate (%).
Response: 32.5

The reported numbers originate from patent US12281107B2.
